Kd reference
target-or-test-system: human uPAR (uPAR-Fc) (Homo sapiens, UniProt Q03405)
Construct: comprising amino acids Leu23-Arg303 according to UniProt entry Q03405.1; purchased R&D Systems 10378-UK-100
Sequence (Q03405 23-303): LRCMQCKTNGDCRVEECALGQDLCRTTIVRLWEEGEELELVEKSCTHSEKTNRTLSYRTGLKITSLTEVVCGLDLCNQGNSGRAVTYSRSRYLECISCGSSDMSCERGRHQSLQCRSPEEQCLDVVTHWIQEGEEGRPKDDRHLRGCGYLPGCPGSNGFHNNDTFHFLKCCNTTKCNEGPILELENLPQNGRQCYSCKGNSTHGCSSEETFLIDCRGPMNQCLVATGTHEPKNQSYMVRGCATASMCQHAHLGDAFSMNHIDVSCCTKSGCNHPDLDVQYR
test: Surface plasmon resonance (SPR) assay, single cycle kinetics
Format: binding
run-parameters: pKD category for uPAR SPR activity assay; uPAR-Fc on Protein A-Chip, single cycle kinetics, 25°C; read-out: pKD CAT (converted)
Where a SMILES comes first, the peptide text is derived from it. Bridges are numbered along the chain shown (N, C = ends). [ ]: non-standard residue; d: D form. The star is where a group is joined. DOTA = O=C(O)CN1CCN(CC(=O)O)CCN(CC(=O)*)CCN(CC(=O)O)CC1; Cit = NC(=O)NCCC[C@H](N)C(=O)O; Nva = CCC[C@H](N)C(=O)O; Pentanoyl = CCCCC(=O)*

Fill in: Kd on human uPAR (uPAR-Fc) (Homo sapiens, UniProt Q03405), entry CCCCC(=O)N[C@H]1CSSC[C@@H](C(N)=O)NC(=O)[C@H](CCC)NC(=O)[C@H]([C@@H](C)CC)NC(=O)[C@@H](Cc2ccc(O)cc2)NC(=O)[C@@H]2CCCN2C(=O)[C@H](Cc2ccccc2)NC(=O)[C@H](Cc2ccc(O)cc2)NC(=O)[C@H](CCC(N)=O)NC(=O)[C@H](CCCNC(=N)N)NC1=O [UPAR-465] (Pentanoyl-CRQYFP[dY]I[Nva]C-NH2; disulfide 1-10)
< 1.58 nM

Fill in: Kd on human uPAR (uPAR-Fc) (Homo sapiens, UniProt Q03405), entry CC[C@H](C)[C@@H]1NC(=O)[C@H](CCCNC(=N)N)NC(=O)[C@@H]2CCCN2C(=O)[C@H](Cc2ccccc2)NC(=O)[C@H](Cc2ccc(O)cc2)NC(=O)[C@H](CCCCNC(=O)CN2CCN(CC(=O)O)CCN(CC(=O)O)CCN(CC(=O)O)CC2)NC(=O)[C@H](CCCNC(N)=O)NC(=O)[C@@H](NC(=O)[C@H](CC(C)C)NC(=O)[C@H](CC(=O)O)NC(C)=O)CSSC[C@@H](C(N)=O)NC(=O)[C@H](CC(C)C)NC1=O [UPAR-423] (Ac-DLC[Cit]K(DOTA)YFPRILC-NH2; disulfide 3-12)
< 1.58 nM

###

target-or-test-system: uPAR-expressing HEC-265 human endometrial adenocarcinoma cells (Homo sapiens)
pIC50: −log10 of the molar value. Where a SMILES comes first, the peptide text is derived from it. Bridges are numbered along the chain shown (N, C = ends). [ ]: non-standard residue; d: D form. The star is where a group is joined. DOTA = O=C(O)CN1CCN(CC(=O)O)CCN(CC(=O)*)CCN(CC(=O)O)CC1; Hyp = O=C(O)[C@@H]1C[C@@H](O)CN1; Pentanoyl(4-Me) = CC(C)CCC(=O)*; Cit = NC(=O)NCCC[C@H](N)C(=O)O; dNMeA = CN[C@H](C)C(=O)O; Aze = O=C(O)[C@@H]1CCN1; Nva = CCC[C@H](N)C(=O)O; Pentanoyl = CCCCC(=O)*
pIC50 reference

Guide cases for pIC50, answers given:
1) CCCCC(=O)N[C@H]1CSSC[C@@H](C(N)=O)NC(=O)[C@H](CCC)NC(=O)[C@H]([C@@H](C)CC)NC(=O)[C@@H](C)N(C)C(=O)[C@@H]2CCCN2C(=O)[C@H](Cc2ccccc2)NC(=O)[C@H](Cc2ccc(O)cc2)NC(=O)[C@H](CCCCNC(=O)CN2CCN(CC(=O)O)CCN(CC(=O)O)CCN(CC(=O)O)CC2)NC(=O)[C@H](CCCNC(N)=O)NC1=O [UPAR-384] (Pentanoyl-C[Cit]K(DOTA)YFP[dNMeA]I[Nva]C-NH2; disulfide 1-10)	≥ 8.00
2) CC[C@H](C)[C@@H]1NC(=O)[C@@H](C)NC(=O)[C@@H]2CCN2C(=O)[C@H](Cc2ccccc2)NC(=O)[C@H](Cc2ccc(O)cc2)NC(=O)[C@H](CCC(N)=O)NC(=O)[C@H](CCCNC(N)=O)NC(=O)[C@@H](NC(=O)CCC(C)C)CSSC[C@@H](C(N)=O)NC(=O)[C@H](CC(C)C)NC1=O [UPAR-426] ({Pentanoyl(4-Me)}-C[Cit]QYF[Aze][dA]ILC-NH2; disulfide 1-10)	≥ 8.00

Fill in: pIC50 on uPAR-expressing HEC-265 human endometrial adenocarcinoma cells (Homo sapiens), entry CCCCC(=O)N[C@H]1CSSC[C@@H](C(=O)NCC(N)=O)NC(=O)[C@H](CCC)NC(=O)[C@H]([C@@H](C)CC)NC(=O)[C@@H]2C[C@@H](O)CN2C(=O)[C@@H]2CCCN2C(=O)[C@H](Cc2ccccc2)NC(=O)[C@H](Cc2ccc(O)cc2)NC(=O)[C@H](CCC(N)=O)NC(=O)[C@H](CCCNC(N)=O)NC1=O [UPAR-206] (Pentanoyl-C[Cit]QYFP[Hyp]I[Nva]CG-NH2; disulfide 1-10)
7.50 to 7.90

###

target-or-test-system: human uPAR (uPAR-Fc) (Homo sapiens)
Construct: comprising amino acids Leu23-Arg303 according to UniProt entry Q03405.1; purchased R&D Systems 10378-UK-100
test: Surface plasmon resonance (SPR) assay, single cycle kinetics
Format: binding
run-parameters: pKD category for uPAR SPR activity assay; uPAR-Fc on Protein A-Chip, 25°C; read-out: pKD CAT (converted)
Where a SMILES comes first, the peptide text is derived from it. Bridges are numbered along the chain shown (N, C = ends). [ ]: non-standard residue; d: D form. The star is where a group is joined. DOTA = O=C(O)CN1CCN(CC(=O)O)CCN(CC(=O)*)CCN(CC(=O)O)CC1; Phe(4-NH2) = Nc1ccc(C[C@H](N)C(=O)O)cc1; Pentanoyl(4-Me) = CC(C)CCC(=O)*; Cit = NC(=O)NCCC[C@H](N)C(=O)O; NMeS = CN[C@@H](CO)C(=O)O; Nva = CCC[C@H](N)C(=O)O; Pentanoyl = CCCCC(=O)*
parameter-measured: Kd

1. CC[C@H](C)[C@@H]1NC(=O)[C@@H](C)NC(=O)[C@@H]2CCCN2C(=O)[C@H](Cc2ccccc2)NC(=O)[C@H](Cc2ccc(N)cc2)NC(=O)[C@H](CCC(N)=O)NC(=O)[C@H](CCCNC(N)=O)NC(=O)[C@@H](NC(=O)CCC(C)C)CSSC[C@@H](C(N)=O)NC(=O)[C@H](CC(C)C)NC1=O [UPAR-314] ({Pentanoyl(4-Me)}-C[Cit]Q[Phe(4-NH2)]FP[dA]ILC-NH2; disulfide 1-10)	< 1.58 nM

Continue with the compound presented below.
Name the recorded Kd of the compound listed here: CCCCC(=O)N[C@H]1CSSC[C@@H](C(N)=O)NC(=O)[C@H](CCC)NC(=O)[C@H]([C@@H](C)CC)NC(=O)[C@H](CO)N(C)C(=O)[C@@H]2CCCN2C(=O)[C@H](Cc2ccccc2)NC(=O)[C@H](Cc2ccc(O)cc2)NC(=O)[C@H](CCCCNC(=O)CN2CCN(CC(=O)O)CCN(CC(=O)O)CCN(CC(=O)O)CC2)NC(=O)[C@H](CCCNC(N)=O)NC1=O [UPAR-277] (Pentanoyl-C[Cit]K(DOTA)YFP[NMeS]I[Nva]C-NH2; disulfide 1-10)
10 to 100 nM

###

pIC50 reference
target-or-test-system: uPAR-expressing HEC-265 human endometrial adenocarcinoma cells (Homo sapiens, UniProt Q03405)
Sequence (Q03405 23-335): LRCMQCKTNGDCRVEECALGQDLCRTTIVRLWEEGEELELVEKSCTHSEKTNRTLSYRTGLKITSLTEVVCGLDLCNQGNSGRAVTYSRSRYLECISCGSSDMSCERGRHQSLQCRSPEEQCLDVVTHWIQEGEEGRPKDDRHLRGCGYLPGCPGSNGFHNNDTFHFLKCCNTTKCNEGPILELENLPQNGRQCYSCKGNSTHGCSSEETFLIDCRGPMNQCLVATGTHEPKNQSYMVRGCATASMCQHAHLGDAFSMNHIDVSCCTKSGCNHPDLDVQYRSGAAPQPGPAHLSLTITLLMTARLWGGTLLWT
pIC50: −log10 of the molar value. Where a SMILES comes first, the peptide text is derived from it. Bridges are numbered along the chain shown (N, C = ends). [ ]: non-standard residue; d: D form. The star is where a group is joined. DOTA = O=C(O)CN1CCN(CC(=O)O)CCN(CC(=O)*)CCN(CC(=O)O)CC1; Phe(4-CONH2) = NC(=O)c1ccc(C[C@H](N)C(=O)O)cc1; Pro(cis-4-F) = O=C(O)[C@@H]1C[C@H](F)CN1; NMeY = CN[C@@H](Cc1ccc(O)cc1)C(=O)O; Hyp = O=C(O)[C@@H]1C[C@@H](O)CN1; Pentanoyl(4-Me) = CC(C)CCC(=O)*; Cit = NC(=O)NCCC[C@H](N)C(=O)O; Butoxycarbonyl = CCCCOC(=O)*; Propanoyl(3-OH) = O=C(CCO)*; Orn = NCCC[C@H](N)C(=O)O; Nva = CCC[C@H](N)C(=O)O

Guide cases for pIC50, answers given:
1. CCCCOC(=O)N[C@H]1CSSC[C@@H](C(=O)N[C@@H](CC(=O)O)C(N)=O)NC(=O)[C@H](CCC)NC(=O)[C@H]([C@@H](C)CC)NC(=O)[C@@H]2C[C@@H](O)CN2C(=O)[C@@H]2C[C@H](F)CN2C(=O)[C@H](Cc2ccccc2)NC(=O)[C@H](Cc2ccc(O)cc2)NC(=O)[C@H](CCCCNC(=O)CN2CCN(CC(=O)O)CCN(CC(=O)O)CCN(CC(=O)O)CC2)NC(=O)[C@H]([C@@H](C)O)NC1=O [UPAR-141] (Butoxycarbonyl-CTK(DOTA)YF[Pro(cis-4-F)][Hyp]I[Nva]CD-NH2; disulfide 1-10)	7.00 to 7.40
2. CCCCOC(=O)N[C@H]1CSSC[C@@H](C(N)=O)NC(=O)[C@H](CCC)NC(=O)[C@H]([C@@H](C)CC)NC(=O)[C@@H]2C[C@@H](O)CN2C(=O)[C@@H]2C[C@H](F)CN2C(=O)[C@H](Cc2ccccc2)NC(=O)[C@H](Cc2ccc(C(N)=O)cc2)NC(=O)[C@H](CCCNC(=O)CN2CCN(CC(=O)O)CCN(CC(=O)O)CCN(CC(=O)O)CC2)NC(=O)[C@H]([C@@H](C)O)NC1=O [UPAR-276] (Butoxycarbonyl-CT[Orn](DOTA)[Phe(4-CONH2)]F[Pro(cis-4-F)][Hyp]I[Nva]C-NH2; disulfide 1-10)	≥ 8.00
3. CC[C@H](C)[C@@H]1NC(=O)[C@@H]2CCCN2C(=O)[C@@H]2CCCN2C(=O)[C@H](Cc2ccccc2)NC(=O)[C@H](Cc2ccc(O)cc2)NC(=O)[C@H](CCCCNC(=O)CN2CCN(CC(=O)O)CCN(CC(=O)O)CCN(CC(=O)O)CC2)NC(=O)[C@H](CCCNC(N)=O)NC(=O)[C@@H](NC(=O)CCC(C)C)CSSC[C@@H](C(N)=O)NC(=O)[C@H](CC(C)C)NC1=O [UPAR-382] ({Pentanoyl(4-Me)}-C[Cit]K(DOTA)YFPPILC-NH2; disulfide 1-10)	≥ 8.00
4. CC[C@H](C)[C@@H]1NC(=O)[C@@H](C)NC(=O)[C@@H]2CCCN2C(=O)[C@H](Cc2ccccc2)NC(=O)[C@H](Cc2ccc(O)cc2)N(C)C(=O)[C@H](CCC(N)=O)NC(=O)[C@H](CCCNC(N)=O)NC(=O)[C@@H](NC(=O)CCC(C)C)CSSC[C@@H](C(N)=O)NC(=O)[C@H](CC(C)C)NC1=O [UPAR-285] ({Pentanoyl(4-Me)}-C[Cit]Q[NMeY]FP[dA]ILC-NH2; disulfide 1-10)	≤ 6.90

Continue with the molecule presented below.
Name the recorded pIC50 of the molecule listed here: CC[C@H](C)[C@@H]1NC(=O)[C@@H](C)NC(=O)[C@@H]2CCCN2C(=O)[C@H](Cc2ccccc2)NC(=O)[C@H](Cc2ccc(O)cc2)NC(=O)[C@H](CCC(N)=O)NC(=O)[C@H](CCCNC(N)=O)NC(=O)[C@@H](NC(=O)CCO)CSSC[C@@H](C(N)=O)NC(=O)[C@H](CC(C)C)NC1=O [UPAR-272] ({Propanoyl(3-OH)}-C[Cit]QYFP[dA]ILC-NH2; disulfide 1-10)
7.00 to 7.40
